Consider the following compounds; for each one, report its combination Emax.
# Test system: T84 (Colorectal Carcinoma)
# procedure_text: combination Emax (second highest fraction inhibited in the dose matrix, 72 h); higher = more inhibition; extreme values may be limits of the assay
Give a plain numeric answer without units written out.

Prompt: Determine reported combination Emax for COc1cccc(OCCCN)c1-c1cc(Nc2cnc(C#N)cn2)n[nH]1 [Prexasertib] + O=C(c1cc(Cc2n[nH]c(=O)c3ccccc23)ccc1F)N1CCN(C(=O)C2CC2)CC1 [Olaparib] (first compound max 1 µM, 7x7, partner max 10 µM) ; test system: T84 (Colorectal Carcinoma).
Completion: 0.826

Prompt: Determine reported combination Emax for C[C@@H](Nc1cc(F)cc(F)c1)c1cc(C(=O)N(C)C)cc2c(=O)cc(N3CCOCC3)oc12 [AZD8186] + CC(=O)c1c(C)c2cnc(Nc3ccc(N4CCNCC4)cn3)nc2n(C2CCCC2)c1=O [Palbociclib] (first compound max 10 µM, 7x7, partner max 10 µM) ; test system: T84 (Colorectal Carcinoma).
Completion: 0.235

Prompt: Determine reported combination Emax for COc1cccc(OCCCN)c1-c1cc(Nc2cnc(C#N)cn2)n[nH]1 [Prexasertib] + CN(C)CCCOc1ccc(-c2ccc3ncc4c(c3c2)n(C2CCOCC2)c(=O)n4C)cn1 [AZD0156] (first compound max 1 µM, 7x7, partner max 1 µM) ; test system: T84 (Colorectal Carcinoma).
Completion: 0.815

Prompt: Determine reported combination Emax for Cc1cc2ncnn2cc1Nc1ncc2c(n1)n(C1CCOCC1)c(=O)n2C [AZD7648] + CN(C)CCCOc1ccc(-c2ccc3ncc4c(c3c2)n(C2CCOCC2)c(=O)n4C)cn1 [AZD0156] (first compound max 10 µM, 7x7, partner max 1 µM) ; test system: T84 (Colorectal Carcinoma).
Completion: 0.214

* * *

# System: TUR (Acute Myeloid Leukemia)
# procedure_text: combination Emax (second highest fraction inhibited in the dose matrix, 72 h); higher = more inhibition; extreme values may be limits of the assay
Consider the following compounds; for each one, report its combination Emax.

Prompt: Consider the compound CC1(C)CCC(CN2CCN(c3ccc(C(=O)NS(=O)(=O)c4ccc(NCC5CCOCC5)c([N+](=O)[O-])c4)c(Oc4cnc5[nH]ccc5c4)c3)CC2)=C(c2ccc(Cl)cc2)C1 [Venetoclax] + CN(C)CCCOc1ccc(-c2ccc3ncc4c(c3c2)n(C2CCOCC2)c(=O)n4C)cn1 [AZD0156] (first compound max 1 µM, 7x7, partner max 1 µM) and give its recorded combination Emax.
Completion: 0.0455

Prompt: Consider the compound Cc1cc2ncnn2cc1Nc1ncc2c(n1)n(C1CCOCC1)c(=O)n2C [AZD7648] + C[C@@H]1COCCN1C2=NC(=NC(=C2)C3(CC3)[S@](=N)(=O)C)C4=C5C=CNC5=NC=C4 [AZD6738] (first compound max 10 µM, 7x7, partner max 10 µM) and give its recorded combination Emax.
Completion: 0.907

Prompt: Consider the compound COc1cccc(OCCCN)c1-c1cc(Nc2cnc(C#N)cn2)n[nH]1 [Prexasertib] + O=C(c1cc(Cc2n[nH]c(=O)c3ccccc23)ccc1F)N1CCN(C(=O)C2CC2)CC1 [Olaparib] (first compound max 1 µM, 7x7, partner max 10 µM) and give its recorded combination Emax.
Completion: 1

Prompt: Consider the compound CC1(C)CCC(CN2CCN(c3ccc(C(=O)NS(=O)(=O)c4ccc(NCC5CCOCC5)c([N+](=O)[O-])c4)c(Oc4cnc5[nH]ccc5c4)c3)CC2)=C(c2ccc(Cl)cc2)C1 [Venetoclax] + C[C@@H](Nc1cc(F)cc(F)c1)c1cc(C(=O)N(C)C)cc2c(=O)cc(N3CCOCC3)oc12 [AZD8186] (first compound max 1 µM, 7x7, partner max 3 µM) and give its recorded combination Emax.
Completion: 0.209

Prompt: Consider the compound COc1cccc(OCCCN)c1-c1cc(Nc2cnc(C#N)cn2)n[nH]1 [Prexasertib] + C[C@@H]1COCCN1C2=NC(=NC(=C2)C3(CC3)[S@](=N)(=O)C)C4=C5C=CNC5=NC=C4 [AZD6738] (first compound max 1 µM, 7x7, partner max 10 µM) and give its recorded combination Emax.
Completion: 1

Prompt: Consider the compound NC1(C(=O)N[C@@H](CCO)c2ccc(Cl)cc2)CCN(c2ncnc3[nH]ccc23)CC1 [Capivasertib] + COc1nnc2ccc(N3CCC(c4ccc(OCCN5CCN(C)C(=O)[C@H]5C)cc4)CC3)nn12 [AZD5153] (first compound max 10 µM, 7x7, partner max 1 µM) and give its recorded combination Emax.
Completion: 1

Prompt: Consider the compound CN(CCO)CC[C@H](CSc1ccccc1)Nc1ccc(S(=O)(=O)NC(=O)c2ccc(N3CCC([C@@H](O)c4ccccc4-c4ccc(Cl)cc4)CC3)cc2)cc1S(=O)(=O)C(F)(F)F [AZD4320] + C1CN(CCC1(C(=O)N[C@@H](CCO)C2=CC=C(C=C2)Cl)N)C3=NC=NC4=C3C=CN4 [Capivasertib] (first compound max 1 µM, 7x7, partner max 3 µM) and give its recorded combination Emax.
Completion: 0.559

* * *

Consider the following compounds; for each one, report its combination Emax.
# Tested on: CPC-N (Small Cell Lung Carcinoma)
# procedure_text: combination Emax (second highest fraction inhibited in the dose matrix, 72 h); higher = more inhibition; extreme values may be limits of the assay

Prompt: Determine reported combination Emax for NC1(C(=O)N[C@@H](CCO)c2ccc(Cl)cc2)CCN(c2ncnc3[nH]ccc23)CC1 [Capivasertib] + Cn1cnc2c(F)c(Nc3ccc(Br)cc3Cl)c(C(=O)NOCCO)cc21 [Selumetinib] (first compound max 10 µM, 7x7, partner max 10 µM) ; test system: CPC-N (Small Cell Lung Carcinoma).
Completion: 0.332

Prompt: Determine reported combination Emax for CS(=O)(=O)CCNCc1ccc(-c2ccc3ncnc(Nc4ccc(OCc5cccc(F)c5)c(Cl)c4)c3c2)o1 [Lapatinib] + C[C@@H](Oc1cc(-c2cnn(C3CCNCC3)c2)cnc1N)c1c(Cl)ccc(F)c1Cl [Crizotinib] (first compound max 10 µM, 7x7, partner max 10 µM) ; test system: CPC-N (Small Cell Lung Carcinoma).
Completion: 0.845

Prompt: Determine reported combination Emax for CN(CCO)CC[C@H](CSc1ccccc1)Nc1ccc(S(=O)(=O)NC(=O)c2ccc(N3CCC([C@@H](O)c4ccccc4-c4ccc(Cl)cc4)CC3)cc2)cc1S(=O)(=O)C(F)(F)F [AZD4320] + C[C@@H]1COCCN1C2=NC(=NC(=C2)C3(CC3)[S@](=N)(=O)C)C4=C5C=CNC5=NC=C4 [AZD6738] (first compound max 1 µM, 7x7, partner max 10 µM) ; test system: CPC-N (Small Cell Lung Carcinoma).
Completion: 1

Prompt: Determine reported combination Emax for C[C@@H](c1ccc2nccn2c1)n1nnc2ncc(-c3cnn(C)c3)nc21 [Savolitinib] + CC1(C)CCC(CN2CCN(c3ccc(C(=O)NS(=O)(=O)c4ccc(NCC5CCOCC5)c([N+](=O)[O-])c4)c(Oc4cnc5[nH]ccc5c4)c3)CC2)=C(c2ccc(Cl)cc2)C1 [Venetoclax] (first compound max 1 µM, 7x7, partner max 1 µM) ; test system: CPC-N (Small Cell Lung Carcinoma).
Completion: 0.203

Prompt: Determine reported combination Emax for O=C(c1cc(Cc2n[nH]c(=O)c3ccccc23)ccc1F)N1CCN(C(=O)C2CC2)CC1 [Olaparib] + COc1nnc2ccc(N3CCC(c4ccc(OCCN5CCN(C)C(=O)[C@H]5C)cc4)CC3)nn12 [AZD5153] (first compound max 10 µM, 7x7, partner max 1 µM) ; test system: CPC-N (Small Cell Lung Carcinoma).
Completion: 0.369

Prompt: Determine reported combination Emax for C=CCn1c(=O)c2cnc(Nc3ccc(N4CCN(C)CC4)cc3)nc2n1-c1cccc(C(C)(C)O)n1 [AZD1775] + CCc1c2c(nc3ccc(O)cc13)-c1cc3c(c(=O)n1C2)COC(=O)[C@]3(O)CC [SN-38] (first compound max 1 µM, partner max 0.3 µM) ; test system: CPC-N (Small Cell Lung Carcinoma).
Completion: 0.923

Prompt: Determine reported combination Emax for CC1(C)CCC(CN2CCN(c3ccc(C(=O)NS(=O)(=O)c4ccc(NCC5CCOCC5)c([N+](=O)[O-])c4)c(Oc4cnc5[nH]ccc5c4)c3)CC2)=C(c2ccc(Cl)cc2)C1 [Venetoclax] + C1CN(CCC1(C(=O)N[C@@H](CCO)C2=CC=C(C=C2)Cl)N)C3=NC=NC4=C3C=CN4 [Capivasertib] (first compound max 1 µM, 7x7, partner max 3 µM) ; test system: CPC-N (Small Cell Lung Carcinoma).
Completion: 0.84

Prompt: Determine reported combination Emax for COc1nnc2ccc(N3CCC(c4ccc(OCCN5CCN(C)C(=O)[C@H]5C)cc4)CC3)nn12 [AZD5153] + CC1(C)CCC(CN2CCN(c3ccc(C(=O)NS(=O)(=O)c4ccc(NCC5CCOCC5)c([N+](=O)[O-])c4)c(Oc4cnc5[nH]ccc5c4)c3)CC2)=C(c2ccc(Cl)cc2)C1 [Venetoclax] (first compound max 1 µM, 7x7, partner max 1 µM) ; test system: CPC-N (Small Cell Lung Carcinoma).
Completion: 0.539

Prompt: Determine reported combination Emax for O=C(c1cc(Cc2n[nH]c(=O)c3ccccc23)ccc1F)N1CCN(C(=O)C2CC2)CC1 [Olaparib] + CN(CC[C@H](CSC1=CC=CC=C1)NC2=C(C=C(C=C2)S(=O)(=O)NC(=O)C3=CC=C(C=C3)N4CCC(CC4)[C@H](C5=CC=CC=C5C6=CC=C(C=C6)Cl)O)S(=O)(=O)C(F)(F)F)CCO [AZD4320] (first compound max 10 µM, 7x7, partner max 1 µM) ; test system: CPC-N (Small Cell Lung Carcinoma).
Completion: 0.856

Prompt: Determine reported combination Emax for C[C@@H]1COCCN1c1cc(C2([S@](C)(=N)=O)CC2)nc(-c2ccnc3[nH]ccc23)n1 [AZD6738] + C1CC(C1)(C(=O)[O-])C(=O)[O-].N.N.[Pt+2] [Carboplatin] (first compound max 10 µM, 7x7, partner max 10 µM) ; test system: CPC-N (Small Cell Lung Carcinoma).
Completion: 0.8

Prompt: Determine reported combination Emax for COc1cccc2c1C(=O)c1c(O)c3c(c(O)c1C2=O)C[C@@](O)(C(=O)CO)C[C@@H]3O[C@H]1C[C@H](N)[C@H](O)[C@H](C)O1 [Doxorubicin] + Cc1cc2ncnn2cc1Nc1ncc2c(n1)n(C1CCOCC1)c(=O)n2C [AZD7648] (first compound max 1 µM, 7x7, partner max 10 µM) ; test system: CPC-N (Small Cell Lung Carcinoma).
Completion: 0.911

Prompt: Determine reported combination Emax for Cc1c2c(nn1C)CSCc1cc(n(C)n1)CSc1cc(c3ccccc3c1)OCCCc1c(C(=O)O)n(C)c3c-2c(Cl)ccc13 [AZD5991] + CS(=O)(=O)CCNCc1ccc(-c2ccc3ncnc(Nc4ccc(OCc5cccc(F)c5)c(Cl)c4)c3c2)o1 [Lapatinib] (first compound max 1 µM, 7x7, partner max 10 µM) ; test system: CPC-N (Small Cell Lung Carcinoma).
Completion: 0.327

Prompt: Determine reported combination Emax for CS(=O)(=O)CCNCc1ccc(-c2ccc3ncnc(Nc4ccc(OCc5cccc(F)c5)c(Cl)c4)c3c2)o1 [Lapatinib] + Cn1cnc2c(F)c(Nc3ccc(Br)cc3Cl)c(C(=O)NOCCO)cc21 [Selumetinib] (first compound max 10 µM, 7x7, partner max 10 µM) ; test system: CPC-N (Small Cell Lung Carcinoma).
Completion: 0.251
